// provenance: ChEMBL document CHEMBL5143590

Please respond with reported MIC for every item in the list.
system: Escherichia coli; assay: Antibacterial activity against Escherichia coli assessed as inhibition of bacterial growth by two fold serial dilution method; type: functional

Use the examples below as a reference point.
INSERT INTO measurements (compound, recorded_result) VALUES
  ('CCCCc1nc(Cl)c(C2NC(=O)NC(C)=C2C(=O)OCC)n1Cc1ccc(Cl)cc1 (centres undefined)', '64 µg/mL'),
  ('CCCCc1nc(Cl)c(C2NC(=O)NC(C)=C2C(=O)OCC)n1Cc1ccccc1Cl (centres undefined)', '32 µg/mL'),
  ('CCCCc1nc(Cl)c(C2NC(=O)NC(C)=C2C(=O)OCC)n1Cc1ccc(Cl)c(Cl)c1 (centres undefined)', '128 µg/mL'),
  ('Cc1cc(NS(=O)(=O)c2ccc(N)cc2)no1', '32 µg/mL'),
  ('CCCCc1nc(Cl)c(C2NC(=O)NC(CN(c3cc(C)no3)S(=O)(=O)c3ccc(N)cc3)=C2C(=O)OCC)[nH]1 (centres undefined)', '2 µg/mL'),
  ('CCCCc1nc(Cl)c(C2NC(=O)NC(C)=C2C(=O)OCC)n1Cc1ccc(C)cc1 (centres undefined)', '32 µg/mL');

Hey, can you go through the list below and give me MIC for every item?
1. CCCCc1nc(Cl)c(C2NC(=O)NC(C)=C2C(=O)OCC)n1CC (centres undefined)
2. CCCCc1nc(Cl)c(C2NC(=O)NC(C)=C2C(=O)OCC)n1S(=O)(=O)c1ccc(F)cc1 (centres undefined)
3. CCCCc1nc(Cl)c(C2NC(=O)NC(C)=C2C(=O)OCC)n1S(=O)(=O)c1ccc(C(C)(C)C)cc1 (centres undefined)
4. CCCCc1nc(Cl)c(C2NC(=O)NC(CN(c3nccs3)S(=O)(=O)c3ccc(N)cc3)=C2C(=O)OCC)[nH]1 (centres undefined)
5. CCCCc1nc(Cl)c(C2NC(=O)NC(C)=C2C(=O)OCC)n1CCC (centres undefined)

1: 64 µg/mL; 2: 32 µg/mL; 3: 64 µg/mL; 4: 256 µg/mL; 5: 64 µg/mL

Please state MIC for every compound in the list that follows.
1. CCn1cc(C(=O)O)c(=O)c2cc(F)c(N3CCNCC3)cc21
2. C=CCn1c(CCCC)nc(Cl)c1C1NC(=O)NC(C)=C1C(=O)OCC (centres undefined)

1. 16 µg/mL
2. 64 µg/mL
